- measured_on: human Arginine Vasopressin Receptor 1a (AVPR1a) (Homo sapiens, UniProt P37288)
- Sequence (P37288 whole entry): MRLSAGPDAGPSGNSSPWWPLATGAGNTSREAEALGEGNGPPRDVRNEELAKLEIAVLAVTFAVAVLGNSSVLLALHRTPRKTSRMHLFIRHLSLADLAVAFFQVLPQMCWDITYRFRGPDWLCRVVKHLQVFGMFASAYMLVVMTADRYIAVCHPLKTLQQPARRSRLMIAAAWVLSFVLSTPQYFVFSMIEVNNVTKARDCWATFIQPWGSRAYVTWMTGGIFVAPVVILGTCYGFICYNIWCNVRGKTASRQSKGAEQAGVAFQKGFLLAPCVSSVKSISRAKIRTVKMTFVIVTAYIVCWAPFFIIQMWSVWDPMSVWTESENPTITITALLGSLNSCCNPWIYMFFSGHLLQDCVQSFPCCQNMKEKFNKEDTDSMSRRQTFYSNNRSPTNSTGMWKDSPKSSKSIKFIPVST
- test_summary: Vasopressin V1a receptor antagonist assay (FLIPR calcium, CHO-AVPR1a cells)
- Experimental: The purpose of this assay was to determine the inhibitory effect of synthesized compounds on the Vasopressin V1a receptor. The assay was performed in Chinese Hamster Ovary (CHO) cells expressing the human Arginine Vasopressin Receptor 1a (AVPR1a). Arginine Vasopressin (AVP) evokes an increase in intracellular calcium in CHO-AVPR1a cells which is measured in a fluorescence assay on the FLIPR^TETRA using calcium sensitive dyes. […]
pIC50: −log10 of the molar value.
observable: pIC50

>>> experimental_value("CC1COc2cc(Cl)ccc2N1C(=O)N1CC2(C1)CN(c1ccc(F)cn1)C2 (stereo not drawn) [1-73]")
"> 7.00"
>>> experimental_value("CC1COc2cc(Cl)ccc2N1C(=O)N1CC2(C1)CN(c1noc3cccnc13)C2 (stereo not drawn) [18-3]")
"> 7.00"
>>> experimental_value("Cn1ccc(N2CC3(CN(C(=O)N4CCOc5cc(Cl)ccc54)C3)C2)n1")
"6.30 to 7.00"
>>> experimental_value("Cc1ccnc(N2CC3(CN(C(=O)N4c5ccc(F)cc5OCC4C)C3)C2)c1 (stereo not drawn) [20-4]")
"> 7.00"
>>> experimental_value("CS(=O)(=O)N1CC2(CN(C(=O)N3CCOc4cc(Cl)ccc43)C2)C1")
"≤ 6.00"
>>> experimental_value("O=C(N1CC2(C1)CN(c1ccnnc1)C2)N1CCOc2cc(Cl)ccc21")
"≤ 6.00"
>>> experimental_value("CC1COc2cc(Cl)ccc2N1C(=O)N1CC2(C1)CN(c1ncccc1F)C2 (stereo not drawn) [1-57]")
"> 7.00"
>>> experimental_value("CCC1COc2cc(Cl)ccc2N1C(=O)N1CC2(C1)CN(c1ccc(F)cn1)C2 (single isomer, unassigned) [1-55-B]")
"> 7.00"
>>> experimental_value("O=C(N1CC2(C1)CN(c1cccnn1)C2)N1CCOc2cc(Cl)ccc21")
"> 7.00"
>>> experimental_value("Cc1ccnc(N2CC3(CN(C(=O)N4c5ccc(F)cc5OCC4C)C3)C2)c1 (single isomer, unassigned) [20-4-A]")
"≤ 6.00"
>>> experimental_value("O=C(N1CC2(C1)CN(c1ccc(F)cn1)C2)N1CCC(F)(F)c2cc(Cl)ccc21")
"> 7.00"
>>> experimental_value("CC1COc2cc(Cl)ccc2N1C(=O)N1CC2(C1)CN(c1nccc(C#N)n1)C2 (single isomer, unassigned) [20-16-A]")
"≤ 6.00"
>>> experimental_value("CC1CN(C(=O)N2CC3(C2)CN(c2ccc(F)cn2)C3)c2ccc(Cl)cc2O1 (stereo not drawn) [9-3]")
"> 7.00"
>>> experimental_value("CC1COc2cc(Cl)ccc2N1C(=O)N1CC2(C1)CN(c1ncccn1)C2 (single isomer, unassigned) [1-83-A]")
"6.30 to 7.00"
>>> experimental_value("CC1COc2cc(F)c(F)cc2N1C(=O)N1CC2(C1)CN(c1ccc(F)cn1)C2 (stereo not drawn) [19-5]")
"> 7.00"
>>> experimental_value("O=C(N1CC2(C1)CN(c1ccc(F)cn1)C2)N1CCOCc2cc(Cl)ccc21")
"> 7.00"
>>> experimental_value("O=C(N1CC2(C1)CN(c1ncc(F)cn1)C2)N1CCOc2cc(Cl)ccc21")
"> 7.00"
>>> experimental_value("O=C(N1CC2(C1)CN(c1ccccn1)C2)N1CCC(O)c2cc(Cl)ccc21 (stereo not drawn) [13-2]")
"> 7.00"
